Quick reference: cytotoxicity at 10 µM of the listed items.
Test: Toxicity liver stage against HepG2, at 10uM
Assay type: cell-based
Set-up: test concentration 10 uM, cell line HepG2-A16-CD81EGFP
Settings: human, HepG2-A16-CD81EGFP cells; read-out: INHIBITION
measurement.label: cytotoxicity at 10 µM (%)

# compound, result.value
data = [
    ("CCC(=O)Nc1cc(Br)cn(C)c1=O", -1.34),
    ("Cc1cccc(-c2nc3cc(S(=O)(=O)N4CCCC4)ccc3n2C)n1", 16.8),
    ("CCC(C)Sc1ncc(-c2c(C#N)c(N)nc3c2COCC3)cn1 (stereo not given)", 15.1),
    ("Cc1cccc(C)c1NC(=O)NCC1CCCN(C2CCOCC2)C1 (stereo not given)", -5.95),
    ("Cc1ccc(S(=O)(=O)c2ncccc2CN2CCN(CCO)CC2)cc1", -49.1),
    ("CCOc1cc(F)ccc1NC(=O)N(C(C)CS(C)(=O)=O)C1CC1 (stereo not given)", 4.11),
    ("COc1ccc(N(C(=O)c2ccc(C)nc2)C(C)C)cc1F", -3.17),
    ("Cc1ccc2c(c1)C1(CCNCC1)CC2OCC1CC1 (stereo not given)", 6.13),
    ("CC(=O)N(Cc1ncc(C)o1)C1CCN(CCOc2ccccc2)C1 (stereo not given)", 7.02),
    ("CCCc1n[nH]c(C2CN(C(=O)C3=COCCC3)CCO2)n1 (stereo not given)", -5.04),
    ("CCC(NC(=O)NCc1nncn1CC)c1ccc(OC)cc1 (stereo not given)", 1.97),
    ("COCc1nc(CNC2CCCc3c2cnn3C(C)(C)C)cs1 (stereo not given)", -1.62),
    ("CC(C)(C)C(=O)NCCC(=O)NC(C)(C)c1ccc2c(c1)OCCO2", -1.22),
    ("Cn1c(CN2CCCC(N3CCCCCC3)C2)cc(=O)n(C)c1=O (stereo not given)", -1.85),
    ("COCCC(=O)N1CCC2(CCCN2Cc2ccccc2)C1 (stereo not given)", 10.4),
    ("Cn1cc(-c2nc(CN3CCN(CCO)CC3)cs2)cn1", -2.66),
    ("NC1(c2nc(C(F)(F)F)cc(=O)[nH]2)CCCCC1", 11),
    ("CC(C)C1COC2(CCN(Cc3ccco3)CC2)C1 (stereo not given)", -3.57),
    ("CC(CN1CCOCC1)NC(=O)c1cc(Cl)c2c(c1)OCO2 (stereo not given)", -2.35),
    ("OCCN1CCN(Cc2coc(-c3ccc(Cl)cc3)n2)CC1", -13.6),
    ("Cc1csc(CN(C)CCOc2ccccc2)n1", -3.18),
    ("Cc1nc(N2CCC3(CCCNC3=O)C2)nc2c1CCCC2 (stereo not given)", -4.97),
    ("O=C(C1CCOCC1)N1CCC2(CC1)CC(Oc1ccccc1)CO2 (stereo not given)", -17.3),
    ("CC(C)N(C)Cc1cnc2n1CCN(Cc1ccc(F)cc1)C2", 1.44),
    ("Cc1cccnc1NC(=O)C1CSc2ncc(C)c(=O)n2C1 (stereo not given)", -1.62),
]
